All values here come from patent US20110158907A1.

Listed molecules paired with reported log P
Protocol Details: Partition coefficient (1-octanol/buffer)
Format: physicochemical
Test Context: 1-octanol / 0.1 M phosphate buffer pH 7.4
Value Type: log P

> print(dat)
                                   molecule  measured
1  CN(C)c1ccc(-c2cn(-c3ccc([125I])cc3)nn2)cc1 [[^125I]10b]       3.4
2  CN(C)c1ccc(-c2cn(-c3ccc(OCCC[18F])cc3)nn2)cc1 [[^18F]17b]       2.7
3  CN(C)c1ccc(-c2cn(-c3ccc(OCC[18F])cc3)nn2)cc1 [[^18F]17a]       2.7
4  CNc1ccc(-c2cn(-c3ccc([125I])cc3)nn2)cc1 [[^125I]10a]       3.0

====

Protocol Details: Partition coefficient (1-octanol/buffer)
Format: physicochemical
Test Context: 1-octanol / 0.1 M phosphate buffer pH 7.4
Value Type: logD

> print(dat)
                                   molecule  value.type  measured
1  CN(C)c1ccc(-c2cn(-c3ccc(OCCO)c([123I])c3)nn2)cc1 [^123I-33]        logD      3.25
